# Tested on: Mus musculus
# TEST_DETAILS: Neurotoxicity in ip dosed CF1 albino mouse after 0.5 hr by rotarod test
# Format: toxicity, organism-based
# MEASUREMENT_PARAMETERS: in vivo
Reported Activity values follow for various compounds
OBSERVATION_TYPE: Activity (mg/kg)

1) CCCCC1(C)CC(=O)N(Nc2ccc(Cl)cc2Cl)C1=O (stereo unspecified)    100
2) CC1(C)CC(=O)N(Nc2ccc(Cl)cc2)C1=O    300
3) O=C1NC(=O)C(c2ccccc2)(c2ccccc2)N1    100
4) CCC1(C)CC(=O)N(Nc2ccccc2C)C1=O (stereo unspecified)    100
5) CC1(C)CC(=O)N(Nc2ccc(Cl)cc2Cl)C1=O    100
6) CCC1(C)CC(=O)N(Nc2ccccc2Cl)C1=O (stereo unspecified)    300
